Biological target: T1, recombinant human CXCR3 (human, UniProt P49682 1-368, limits assumed)
T1 construct: also called C-X-C motif chemokine receptor 3
T1 sequence (looked up): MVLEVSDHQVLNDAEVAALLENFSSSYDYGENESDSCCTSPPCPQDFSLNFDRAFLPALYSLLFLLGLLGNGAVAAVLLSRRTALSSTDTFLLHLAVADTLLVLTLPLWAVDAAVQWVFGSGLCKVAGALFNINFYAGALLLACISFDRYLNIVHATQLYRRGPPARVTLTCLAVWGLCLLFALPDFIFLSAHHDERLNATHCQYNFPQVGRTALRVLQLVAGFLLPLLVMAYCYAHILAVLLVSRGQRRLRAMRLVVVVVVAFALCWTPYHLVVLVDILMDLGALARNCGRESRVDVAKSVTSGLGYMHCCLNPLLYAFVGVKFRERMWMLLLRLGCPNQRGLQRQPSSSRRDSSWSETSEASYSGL
Assay: binding kinetics; method and antigen not given
Observable: koff (s⁻¹)
Your answer is read as s⁻¹, so omit the unit and give the number.

As a guide, the following entries are already answered.
[
  {
    "Binder": "humanized clone 53 HuAntibody 24 (antibody, V domains shown, humanized anti-human CXCR3 mAb) VH: EVQLLESGGGLVQPGGSLRLSCAASGFTFTSYAMSWVRQAPGKGLEWVATISHGGTYTYYPDSVKGRFTISRDNAKNTLYLQMNSLRAEDTAMYYCARHPIYSGNYQGYFDYWGQGTLVTVSS VL: DIQLTQSPSFLSASVGDRVTITCRASSGVNYLYWYQQKPGKAPKLWIYFTSTLAPGVPSRFSGSGSGNEYTLTISSLQPEDFATYYCQQFTSSPYTFGGGTKLEIK",
    "Observable": "koff",
    "Observed value": "6.16e-06"
  },
  {
    "Binder": "humanized clone 53 HuAntibody 25 (antibody, V domains shown, humanized anti-human CXCR3 mAb) VH: EVQLLESGGGLVQPGGSLRLSCAASGFTFTSYAMSWVRQAPGKGLEWVATISHGGTYTYYPDSVKGRFTISRDNAKNTLYLQMNSLRAEDTAVYYCARHPIYSGNYQGYFDYWGQGTLVTVSS VL: DIQLTQSPSFLSASVGDRVTITCRASSGVNYLYWYQQKPGKAPKLWIYFTSTLAPGVPSRFSGSGSGNEYTLTISSLQPEDFATYYCQQFTSSPYTFGGGTKLEIK",
    "Observable": "koff",
    "Observed value": "6.21e-05"
  },
  {
    "Binder": "humanized clone 53 HuAntibody 23 (antibody, V domains shown, humanized anti-human CXCR3 mAb) VH: EVQLLESGGGLVQPGGSLRLSCAASGFTFTSYAMSWVRQAPGKGLEWVAVISHGGTYTYYADSVKGRFTISRDNAKNTLYLQMNSLRAEDTAVYYCARHPIYSGNYQGYFDYWGQGTLVTVSS VL: DIQLTQSPSFLSASVGDRVTITCRASSGVNYLYWYQQKPGKAPKLWIYFTSTLAPGVPSRFSGSGSGNEYTLTISSLQPEDFATYYCQQFTSSPYTFGGGTKLEIK",
    "Observable": "koff",
    "Observed value": "2.45e-05"
  },
  {
    "Binder": "humanized clone 53 HuAntibody 34 (antibody, V domains shown, humanized anti-human CXCR3 mAb) VH: EVQLLESGGGLVQPGGSLRLSCAASGFTFTSYAMSWVRQAPGKGLEWVAVISHGGTYTYYADSVKGRFTISRDNAKNTLYLQMNSLRAEDTAVYYCARHPIYSGNYQGYFDYWGQGTLVTVSS VL: DIQLTQSPSFLSASVGDRVTITCRASSGVNYLYWYQQKPGKAPKLWIYFTSTLASGVPSRFSGSGSGNEYTLTISSLQPEDFATYYCQQFTSSPYTFGQGTKLEIK",
    "Observable": "koff",
    "Observed value": "9.19e-05"
  }
]

## Input Would you mind telling me what koff value was observed for humanized clone 53 HuAntibody 35 (antibody, V domains shown, humanized anti-human CXCR3 mAb) VH: EVQLLESGGGLVQPGGSLRLSCAASGFTFTSYAMSWVRQAPGKGLEWVATISHGGTYTYYPDSVKGRFTISRDNAKNTLYLQMNSLRAEDTAMYYCARHPIYSGNYQGYFDYWGQGTLVTVSS VL: DIQLTQSPSFLSASVGDRVTITCRASSGVNYLYWYQQKPGKAPKLWIYFTSTLASGVPSRFSGSGSGNEYTLTISSLQPEDFATYYCQQFTSSPYTFGQGTKLEIK ?
## Output 4.73e-06
